From: paper PMC10285260

TESTED SYSTEM: human P450 51A1 (Homo sapiens)
PROCEDURE DETAILS: Single-turnover rapid-quench kinetics of [3-3H]-dihydrolanosterol oxidation (radio-HPLC)
Format: biochemical
Set-up: made in house; host or cells: Escherichia coli
CONDITION SUMMARY: time 2 s
Assign concentration in single-turnover reaction to each entry below.
Respond with the bare value in µM.

### Prompt What measured concentration in single-turnover reaction goes with CC(C)CCCC(C)[C@H]1CC[C@@]2(C=O)C3=C(CC[C@]12C)[C@@]1(C)CC[C@H](O)C(C)(C)C1CC3 (stereo partly drawn) [14α-CHO dihydrolanosterol, 24,25-dihydro-14α-formyl lanosterol] ?
### Response 0.7105

### Prompt What measured concentration in single-turnover reaction goes with CC(C)CCCC(C)[C@H]1CC[C@@]2(C)C3=C(CC[C@]12C)[C@@]1(C)CC[C@H](O)C(C)(C)C1CC3 (stereo partly shown) [dihydrolanosterol, 24,25-dihydrolanosterol] ?
### Response 1.0864

### Prompt What measured concentration in single-turnover reaction goes with CC(C)CCCC(C)[C@H]1CC[C@@]2(CO)C3=C(CC[C@]12C)[C@@]1(C)CC[C@H](O)C(C)(C)C1CC3 (stereo partly drawn) [14α-CH2OH dihydrolanosterol, 24,25-dihydro-14α-CH2OH lanosterol] ?
### Response 0

### Prompt What measured concentration in single-turnover reaction goes with CC(C)CCC[C@@H](C)[C@H]1CC=C2C3=C(CC[C@@]21C)[C@@]1(C)CC[C@H](O)C(C)(C)[C@@H]1CC3 [dihydro FF-MAS, 24,25-dihydro FF-MAS] ?
### Response 5.2031

====

Assign concentration in single-turnover reaction to each entry below.
TESTED SYSTEM: human P450 51A1 (Homo sapiens)
Sequence (Q16850 1-509): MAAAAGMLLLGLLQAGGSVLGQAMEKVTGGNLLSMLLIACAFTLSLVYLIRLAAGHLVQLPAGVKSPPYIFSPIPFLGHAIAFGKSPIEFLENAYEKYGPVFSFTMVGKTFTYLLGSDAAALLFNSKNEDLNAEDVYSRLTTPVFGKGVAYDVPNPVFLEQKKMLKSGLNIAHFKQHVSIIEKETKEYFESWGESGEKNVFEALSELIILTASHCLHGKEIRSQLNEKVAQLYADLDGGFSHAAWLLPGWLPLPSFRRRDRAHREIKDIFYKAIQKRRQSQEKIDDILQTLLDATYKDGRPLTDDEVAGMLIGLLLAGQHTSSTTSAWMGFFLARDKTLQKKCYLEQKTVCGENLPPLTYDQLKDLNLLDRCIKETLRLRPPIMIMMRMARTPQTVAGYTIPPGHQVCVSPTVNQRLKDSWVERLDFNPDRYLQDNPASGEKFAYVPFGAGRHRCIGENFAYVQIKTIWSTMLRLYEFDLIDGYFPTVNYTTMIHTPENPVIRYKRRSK
PROCEDURE DETAILS: Single-turnover rapid-quench kinetics of [3-3H]-dihydrolanosterol oxidation (radio-HPLC)
Assay type: biochemical
Parameters: made in house; host or cells: Escherichia coli
CONDITION SUMMARY: time 0.05 s; start 7 µM dihydrolanosterol
Respond with the bare value in µM.

### Prompt What measured concentration in single-turnover reaction goes with CC(C)CCCC(C)[C@H]1CC[C@@]2(CO)C3=C(CC[C@]12C)[C@@]1(C)CC[C@H](O)C(C)(C)C1CC3 (stereo partly drawn) [14α-CH2OH dihydrolanosterol, 24,25-dihydro-14α-CH2OH lanosterol] ?
### Response 2.2428

### Prompt What measured concentration in single-turnover reaction goes with CC(C)CCCC(C)[C@H]1CC[C@@]2(C)C3=C(CC[C@]12C)[C@@]1(C)CC[C@H](O)C(C)(C)C1CC3 (stereo partly shown) [dihydrolanosterol, 24,25-dihydrolanosterol] ?
### Response 4.7572

### Prompt What measured concentration in single-turnover reaction goes with CC(C)CCCC(C)[C@H]1CC[C@@]2(C=O)C3=C(CC[C@]12C)[C@@]1(C)CC[C@H](O)C(C)(C)C1CC3 (stereo partly drawn) [14α-CHO dihydrolanosterol, 24,25-dihydro-14α-formyl lanosterol] ?
### Response 0

### Prompt What measured concentration in single-turnover reaction goes with CC(C)CCC[C@@H](C)[C@H]1CC=C2C3=C(CC[C@@]21C)[C@@]1(C)CC[C@H](O)C(C)(C)[C@@H]1CC3 [dihydro FF-MAS, 24,25-dihydro FF-MAS] ?
### Response 0
